Where a name gives a salt, the structure may show the parent alone.
Measured Endpoint: melting point

Illustrative cases are given below, each with its answer.
| Compound | Assay Value |
| --- | --- |
| CN1C(=O)c2cc(-c3ccccc3)nn2-c2cc(-c3ccc(N)nc3)ccc2C12CC2 (as salt: hydrochloride) | > 250 °C |
| CN1C(=O)c2cccn2-c2cc(-c3ccc(C(F)(F)F)nc3)ccc2C12CC2 | 88 to 97 °C |

Recorded melting point (compound Cc1ncccc1-c1ccc2c(c1)-n1cc(-c3ccccc3F)cc1C(=O)N(C)C21CC1 (as salt: hydrochloride) ): 185 to 190 °C

Recorded melting point (compound CN1Cc2ccc(-c3ccc(N)nc3)cc2-n2cc(-c3ccccc3)cc2C1=O (as salt: hydrochloride) ): > 250 °C

---

Structures can show the parent of a compound that is named as a salt.
Measured Endpoint: melting point

Illustrative cases are given below, each with its answer.
| Compound | Measured Endpoint | Assay Value |
| --- | --- | --- |
| CN1C(=O)c2cc(-c3nnco3)cn2-c2cc(-c3ccc(F)nc3)ccc2C12CC2 | melting point | 160 to 175 °C |
| CC(=O)c1cc2n(c1)-c1cc(-c3cccnc3C)ccc1C1(CC1)N(C)C2=O (as salt: hydrochloride) | melting point | 200 to 220 °C |
| Cc1ncccc1-c1ccc2c(c1)-n1nccc1C(=O)N(C)C2 (as salt: hydrochloride) | melting point | 120 to 140 °C |

Here is another compound to look at.
Recorded melting point (compound Cc1cnccc1-c1ccc2c(c1)-n1cccc1C(=O)N(C)C21CC1 (as salt: hydrochloride) ): > 250 °C

---

Target: human mGluR3 (hmGluR3) (Homo sapiens, UniProt Q14832)
Sequence (Q14832 23-879): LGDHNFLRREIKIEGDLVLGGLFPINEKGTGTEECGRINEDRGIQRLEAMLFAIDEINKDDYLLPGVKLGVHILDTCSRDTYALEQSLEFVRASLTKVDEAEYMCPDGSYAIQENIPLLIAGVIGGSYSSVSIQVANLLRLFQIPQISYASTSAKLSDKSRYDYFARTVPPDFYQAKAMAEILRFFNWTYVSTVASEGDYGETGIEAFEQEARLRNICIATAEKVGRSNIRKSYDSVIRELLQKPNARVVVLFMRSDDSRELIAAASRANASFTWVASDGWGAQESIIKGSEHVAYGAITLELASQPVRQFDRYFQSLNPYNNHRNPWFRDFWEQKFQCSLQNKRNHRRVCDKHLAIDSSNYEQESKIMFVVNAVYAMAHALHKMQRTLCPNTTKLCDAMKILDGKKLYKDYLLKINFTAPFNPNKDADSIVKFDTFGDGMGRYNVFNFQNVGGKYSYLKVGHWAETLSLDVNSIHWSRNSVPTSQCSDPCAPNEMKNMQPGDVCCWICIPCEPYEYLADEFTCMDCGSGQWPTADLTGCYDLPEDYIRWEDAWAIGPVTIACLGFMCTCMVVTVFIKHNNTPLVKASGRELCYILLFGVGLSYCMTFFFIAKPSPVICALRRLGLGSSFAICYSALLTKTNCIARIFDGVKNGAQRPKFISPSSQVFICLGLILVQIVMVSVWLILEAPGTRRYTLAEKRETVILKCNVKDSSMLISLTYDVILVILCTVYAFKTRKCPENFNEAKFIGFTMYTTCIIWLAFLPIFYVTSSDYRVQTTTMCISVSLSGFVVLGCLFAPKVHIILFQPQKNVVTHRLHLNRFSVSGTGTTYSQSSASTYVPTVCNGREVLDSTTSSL
Test: Human mGluR3 positive allosteric modulator evaluation using Ca++ functional assay
Details: hmGluR3 transiently over-expressed in HEK-293 cells; stimulated by EC50 glutamate concentration; intracellular Ca2+ (Fluo4AM, FLIPR Tetra)
pEC50: −log10 of the molar value.
Measured Endpoint: pEC50

Illustrative cases are given below, each with its answer.
| Molecule | Target | Assay Value |
| --- | --- | --- |
| Cc1ncccc1-c1ccc2c(c1)-n1cccc1C(=O)N(C)C2C (stereo not drawn) [Example 218] | human mGluR3 (hmGluR3) (Homo sapiens, UniProt Q14832) | 6.00 to 7.00 |
| CN(C)c1ncccc1-c1ccc2c(c1)-n1cc(-c3ccccc3)cc1C(=O)N(C)C21CC1 [Example 119] | human mGluR3 (hmGluR3) (Homo sapiens, UniProt Q14832) | < 6.00 |
| CN1C(=O)c2cccn2-c2cc(CCC#N)ccc2C12CC2 [Example 53] | human mGluR3 (hmGluR3) (Homo sapiens, UniProt Q14832) | < 6.00 |
| CN1C(=O)c2cccn2-c2c(C#N)cccc2C12CC2 [Example 91] | human mGluR3 (hmGluR3) (Homo sapiens, UniProt Q14832) | < 6.00 |
| CCCc1ncccc1-c1ccc2c(c1)-n1cccc1C(=O)N(C)C21CC1 [Example 61] | human mGluR3 (hmGluR3) (Homo sapiens, UniProt Q14832) | > 7.00 |
| Cc1ncccc1-c1ccc2c(c1)-n1cc(C3CC3)cc1C(=O)N(C)C21CC1 [Example 155] | human mGluR3 (hmGluR3) (Homo sapiens, UniProt Q14832) | > 7.00 |
| Cc1ccc(-c2ccc3c(c2)-n2cccc2C(=O)N(C)C32CC2)c(C)n1 [Example 56] | human mGluR3 (hmGluR3) (Homo sapiens, UniProt Q14832) | > 7.00 |
| CCC1c2ccc(-c3cccnc3C)cc2-n2cccc2C(=O)N1C (stereo not drawn) [Example 220] | human mGluR3 (hmGluR3) (Homo sapiens, UniProt Q14832) | 6.00 to 7.00 |

Here is another molecule to look at.
Entry CN1C(=O)c2cc(-c3ncc[nH]3)cn2-c2cc(-c3ccc(F)nc3)ccc2C12CC2 [Example 186] under human mGluR3 (hmGluR3) (Homo sapiens, UniProt Q14832) had pEC50 of > 7.00
